B1: FUT8 (parent)
chain: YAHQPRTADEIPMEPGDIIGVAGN

- Variants of: B1
- assayNotes: protein stability index of a GFP-peptide fusion (GPS, HEK-293T) (PSI 1-6); higher = more stable;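 further: lentivirally expressed fusions sorted by FACS into six bins by GFP to DsRed ratio, PSI derived from sequencing read proportions per bin multiplied by bin number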
- measurementConditions: c terminus: a fixed tail appended
assayEndpoint: protein stability index
No unit in the answer, only the number.

Input line: Consider the variant shown here: YAHQPRTADEIPCEPGDIIGVAGN [M13C] What is its recorded protein stability index?
Output line: 3.9

Input line: Consider the variant shown here: YAHQPRTADEIPMEPGDIIGVASN [G23S] What is its recorded protein stability index?
Output line: 3.77

Input line: Consider the variant shown here: YAHQSRTADEIPMEPGDIIGVAGN [P5S] What is its recorded protein stability index?
Output line: 3.85

Input line: Consider the variant shown here: YAHQPRTADEIPMEPGDLIGVAGN [I18L] What is its recorded protein stability index?
Output line: 4.05

Input line: Consider the variant shown here: YAHQPRTADEIPMEPGDPIGVAGN [I18P] What is its recorded protein stability index?
Output line: 4.7

Input line: Consider the variant shown here: YAHQPRTADEIPMEPSDIIGVAGN [G16S] What is its recorded protein stability index?
Output line: 3.87

Input line: Consider the variant shown here: YAHQPDTADEIPMEPGDIIGVAGN [R6D] What is its recorded protein stability index?
Output line: 4.54

Input line: Consider the variant shown here: YAHQPRTADEIPMEYGDIIGVAGN [P15Y] What is its recorded protein stability index?
Output line: 3.31

Input line: Consider the variant shown here: YAHQPRAADEIPMEPGDIIGVAGN [T7A] What is its recorded protein stability index?
Output line: 4.18

Input line: Consider the variant shown here: YAHQTRTADEIPMEPGDIIGVAGN [P5T] What is its recorded protein stability index?
Output line: 4.31

Input line: Consider the variant shown here: YAHQPRTADKIPMEPGDIIGVAGN [E10K] What is its recorded protein stability index?
Output line: 2.9

Input line: Consider the variant shown here: YAHQPRTADPIPMEPGDIIGVAGN [E10P] What is its recorded protein stability index?
Output line: 3.66

Input line: Consider the variant shown here: YAHQPRTATEIPMEPGDIIGVAGN [D9T] What is its recorded protein stability index?
Output line: 3.57

Input line: Consider the variant shown here: YAHQPRTADEIPMEPGDIIGVGGN [A22G] What is its recorded protein stability index?
Output line: 4.01

Input line: Consider the variant shown here: YAHQPRTADEIGMEPGDIIGVAGN [P12G] What is its recorded protein stability index?
Output line: 3.6

Input line: Consider the variant shown here: YAHQPRTADEIPMEPGKIIGVAGN [D17K] What is its recorded protein stability index?
Output line: 3.25

Input line: Consider the variant shown here: YAHQWRTADEIPMEPGDIIGVAGN [P5W] What is its recorded protein stability index?
Output line: 1.88

Input line: Consider the variant shown here: YAHQPRTADEINMEPGDIIGVAGN [P12N] What is its recorded protein stability index?
Output line: 3.73

Input line: Consider the variant shown here: YVHQPRTADEIPMEPGDIIGVAGN [A2V] What is its recorded protein stability index?
Output line: 2.39

Input line: Consider the variant shown here: YAHQARTADEIPMEPGDIIGVAGN [P5A] What is its recorded protein stability index?
Output line: 4.23

Input line: Consider the variant shown here: YAHQPRTADEIPMEDGDIIGVAGN [P15D] What is its recorded protein stability index?
Output line: 4.32

Input line: Consider the variant shown here: YATQPRTADEIPMEPGDIIGVAGN [H3T] What is its recorded protein stability index?
Output line: 4.25

Input line: Consider the variant shown here: YAHQPRTADEIPMEPGDRIGVAGN [I18R] What is its recorded protein stability index?
Output line: 4.45

Input line: Consider the variant shown here: YAHQPRTADEIPMFPGDIIGVAGN [E14F] What is its recorded protein stability index?
Output line: 2.46

Input line: Consider the variant shown here: YAHYPRTADEIPMEPGDIIGVAGN [Q4Y] What is its recorded protein stability index?
Output line: 3.66

Input line: Consider the variant shown here: YAHQPRTADEIPMESGDIIGVAGN [P15S] What is its recorded protein stability index?
Output line: 3.92

Input line: Consider the variant shown here: YAHQPRTADEPPMEPGDIIGVAGN [I11P] What is its recorded protein stability index?
Output line: 4.12

Input line: Consider the variant shown here: YAHQPRTAIEIPMEPGDIIGVAGN [D9I] What is its recorded protein stability index?
Output line: 2.6

Input line: Consider the variant shown here: YAHQPPTADEIPMEPGDIIGVAGN [R6P] What is its recorded protein stability index?
Output line: 4.78

Input line: Consider the variant shown here: YAHQPRTVDEIPMEPGDIIGVAGN [A8V] What is its recorded protein stability index?
Output line: 3.77

Input line: Consider the variant shown here: YAHQPRGADEIPMEPGDIIGVAGN [T7G] What is its recorded protein stability index?
Output line: 4.18

Input line: Consider the variant shown here: YAHQYRTADEIPMEPGDIIGVAGN [P5Y] What is its recorded protein stability index?
Output line: 3.48

Input line: Consider the variant shown here: YAHQLRTADEIPMEPGDIIGVAGN [P5L] What is its recorded protein stability index?
Output line: 3.75

Input line: Consider the variant shown here: YAHQPNTADEIPMEPGDIIGVAGN [R6N] What is its recorded protein stability index?
Output line: 4.33

Input line: Consider the variant shown here: YAHQPRTADEIPMEPGDIIGYAGN [V21Y] What is its recorded protein stability index?
Output line: 3.82

Input line: Consider the variant shown here: YAHQPRTADEIPMEPGDIVGVAGN [I19V] What is its recorded protein stability index?
Output line: 4.17

Input line: Consider the variant shown here: YAHDPRTADEIPMEPGDIIGVAGN [Q4D] What is its recorded protein stability index?
Output line: 4.36

Input line: Consider the variant shown here: YEHQPRTADEIPMEPGDIIGVAGN [A2E] What is its recorded protein stability index?
Output line: 5.05

Input line: Consider the variant shown here: YNHQPRTADEIPMEPGDIIGVAGN [A2N] What is its recorded protein stability index?
Output line: 4.92

Input line: Consider the variant shown here: YAHQPRTADEKPMEPGDIIGVAGN [I11K] What is its recorded protein stability index?
Output line: 4.27
